# Measured on: NADPH oxidase 4 (Homo sapiens) (UniProt Q9NPH5)
# Sequence (Q9NPH5 whole entry, looked up): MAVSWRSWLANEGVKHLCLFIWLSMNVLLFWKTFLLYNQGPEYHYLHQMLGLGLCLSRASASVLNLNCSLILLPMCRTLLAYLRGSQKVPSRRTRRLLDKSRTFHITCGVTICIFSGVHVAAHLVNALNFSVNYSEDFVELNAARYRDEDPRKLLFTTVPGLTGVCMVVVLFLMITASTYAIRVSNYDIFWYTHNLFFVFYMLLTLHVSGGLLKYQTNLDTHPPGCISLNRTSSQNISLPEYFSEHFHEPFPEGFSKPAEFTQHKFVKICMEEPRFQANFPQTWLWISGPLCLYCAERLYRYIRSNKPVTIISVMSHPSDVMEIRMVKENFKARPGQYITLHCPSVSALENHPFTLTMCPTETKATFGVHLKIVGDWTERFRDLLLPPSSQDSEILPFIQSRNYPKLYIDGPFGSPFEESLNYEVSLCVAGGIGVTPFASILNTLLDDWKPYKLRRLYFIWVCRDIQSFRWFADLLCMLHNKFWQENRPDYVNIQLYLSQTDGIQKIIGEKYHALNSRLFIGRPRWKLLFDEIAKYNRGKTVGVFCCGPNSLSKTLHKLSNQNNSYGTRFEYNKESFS
# Protocol notes: NOX4-dependent H2O2 signal modulators, primary screen, NOX inhibitor project, cell-based, HEK293-NOX4, tetracycline-induced, Amplex Red fluorescence (AID 1160)
# Particulars: 45 min, higher = more signal, called active from +8 up or from −8 down
Tick condition met if z-score is 0.3 or greater. Tick condition not met if z-score is less than 0.3.

Compound	Category
[N-]=[N+]=NCc1ccccc1[C@H]1OC(c2ccc(OCCCO)cc2)=N[C@@]1(CCS(=O)(=O)c1ccccc1)C(=O)N1CCCCC1	condition met
NCCCCCCNC(=O)[C@@H]1C[C@@H]2C(=O)N[C@@H](CCCCN)C(=O)N2[C@@H]1c1cccc(OCCO)c1	condition met
C=C(C)[C@@H]1CC=C(C(O)C2C=CC3C(=O)N(c4ccccc4)C(=O)C3N2Nc2ccccc2F)CC1 (some centres undefined)	condition not met
CN1C(=O)C2C=CC(C(O)c3ccc(F)cc3)N(Nc3ccccc3)C2C1=O (centres undefined)	condition not met
NC(=O)N1C(=O)C2C(C1=O)C1C=C(CCCO)C2C(c2cccs2)N1Cc1cccc(OC(F)(F)F)c1 (centres undefined)	condition not met
COC(=O)[C@@]1(Cc2ccc(F)cc2)[C@H]2c3cc(C(=O)N(C)C)n(CCc4ccc(O)c(OC)c4)c3C[C@H]2CN1C(=O)c1ccccc1	condition not met
Cc1ccc(S[C@]2(C(=O)O)CC(=O)N(Cc3cc(C(F)(F)F)cc(C(F)(F)F)c3)[C@@H]2c2ccc(CO)cc2)cc1	condition not met
COC(=O)[C@@]1(Cc2ccccc2)[C@H]2c3cc(C(=O)N(C)C)n(CCc4ccc(O)c(OC)c4)c3C[C@H]2CN1C(=O)c1ccccc1	condition not met
C=CC[C@]1(C(=O)O)COC(c2ccc(OCCCO)cc2)=N1	condition not met
CC(C)C(CO)N1C(=O)[C@@H]2C3C(=O)OCCC/C=C\[C@H]3OC23C=CCN(C(C)(C)C)C(=O)[C@@H]13 (some centres undefined)	condition met
CCCC[C@@H]1C[C@H]1[C@@H](NC(=O)Cc1ccccc1)c1ccc(-c2ccccc2)cc1	condition not met
CCOC(=O)C[C@H]1[C@H](OC(=O)c2ccccc2-c2ccccc2)[C@@H](NC(=O)c2ccc(-c3ccccc3)cc2)c2cc(OCCCO)ccc2N1C(=O)c1ccc2ccccc2n1	condition met
C=CC[C@@]1(C(=O)N2CCOCC2)N=C(c2ccc(OCCCO)cc2)O[C@@H]1c1ccccc1CN=[N+]=[N-]	condition met
C[N+](C)(C)CCCC[C@@H]1NC(=O)[C@H]2C[C@@H](C(=O)NCCCCCCN)[C@@H](c3ccc(O)cc3)N2C1=O	condition not met
[N-]=[N+]=NCc1ccccc1C[C@@]1(C(=O)N2CCCCC2)N=C(c2ccc(OCCCO)cc2)O[C@@H]1c1ccccc1	condition not met
COCCOC(=O)N1C(=O)[C@@]2(c3cc(C#CCC(C(=O)OC)C(=O)OC)ccc31)[C@H](C(=O)N1CCc3cc(OC)c(OC)cc3C1)[C@H]1C(=O)O[C@H](c3ccccc3)[C@H](c3ccccc3)N1[C@@H]2c1ccc(OCCO)cc1	condition met
COc1cc(OC)c(C(O)C2C=CC3C(=O)N(C)C(=O)C3N2NC(=O)OC(C)(C)C)cc1Br (centres undefined)	condition not met
[N-]=[N+]=NCc1ccccc1[C@@H]1OC(c2ccc(OCCCO)cc2)=N[C@]1(CCS(=O)(=O)c1ccccc1)C(=O)NCC(O)CO (some centres undefined)	condition met
CCOC(=O)C[C@H]1[C@H](OC(=O)c2ccc(C(=O)c3ccccc3)cc2)[C@@H](NC(=O)Cc2ccc(OC)cc2)c2cc(OCCCO)ccc2N1C(=O)c1ccccc1	condition met
O=C1N(Cc2ccccc2)c2ccccc2[C@@H]2OC(c3ccc(OCCCO)cc3)=N[C@]12Cc1ccccc1	condition not met
CN(C)CCCNC(=O)[C@@H]1c2ccccc2C(=O)N(Cc2ccccc2Cl)[C@H]1c1ccc(CO)cc1	condition met
C=C[C@@H](COC(C)=O)N(C(=O)OC(C)(C)C)S(=O)(=O)c1ccc(Br)cc1	condition not met
CC=CC(O)C1C=CC2C(=O)N(c3ccccc3)C(=O)C2N1Nc1ccccc1F (centres undefined)	condition not met
COC(=O)[C@@]1(Cc2ccccc2)[C@H]2c3cc(C(=O)N(C)C)n(Cc4c(CO)[nH]cc(C)c4=O)c3C[C@H]2CN1C(=O)c1ccccc1	condition met
COCCCNC(=O)[C@]1(CCS(=O)(=O)c2ccccc2)N=C(c2ccc(OCCCO)cc2)O[C@@H]1c1ccccc1N=[N+]=[N-]	condition not met
CN(C)C(=O)[C@@]1(Cc2ccccc2CN=[N+]=[N-])N=C(c2ccc(OCCCO)cc2)O[C@H]1c1ccccc1CN=[N+]=[N-]	condition met
CN1C(=O)C2C=CC(C(O)C#Cc3ccccc3)N(Nc3ccccc3)C2C1=O (centres undefined)	condition not met
CCOC(=O)C[C@H]1[C@H](OC(=O)c2cc3ccccc3oc2=O)[C@@H](NC(=O)c2ccc(-c3ccccc3)cc2)c2cc(OCCCO)ccc2N1C(=O)c1ccc2ccccc2n1	condition met
CN(C)C(=O)[C@]1(CCS(=O)(=O)c2ccccc2)N=C(c2ccc(OCCCO)cc2)O[C@@H]1c1ccccc1N=[N+]=[N-]	condition met

From: PubChem BioAssay
